Catalogue of Degradation rate constant readings, one per entry.
ASSAY_COMMENT: Peptide stability in a human colon model (pooled human faecal slurry, anaerobic)
Format: in vitro ADME
CONDITION: HCM, fitted to exponential (one-phase, first-order) decay model, plateau 0.0
Bridge positions count the residues as written; N and C are the ends. Square brackets hold non-standard residues; d marks the D form. Peptide text beside a SMILES is read from it.
State just the number; it will be interpreted in h⁻¹.

[
  {
    "MOLECULE": "CC[C@H](C)[C@@H]1NC(=O)[C@H](Cc2ccc(O)cc2)NC(=O)[C@H](C)NC(=O)CSC[C@@H](C(=O)N2CCC[C@H]2C(=O)N[C@@H](CC(C)C)C(=O)NCC(N)=O)NC(=O)[C@H](CC(N)=O)NC(=O)[C@H](CCC(N)=O)NC1=O [Peptide P3] ({CH2CO}-AYIQNCPLG-NH2; thioether N-6)",
    "Degradation rate constant / h⁻¹": 0.688
  }
]

Look at this molecule and give its reported Degradation rate constant. CC[C@@H](C)[C@H]1NC(=O)[C@@H](Cc2ccc(O)cc2)NC(=O)[C@H](C)NC(=O)CSC[C@@H](C(=O)N2CCC[C@H]2C(=O)N[C@H](CC(C)C)C(=O)NCC(N)=O)NC(=O)[C@H](CC(N)=O)NC(=O)[C@H](CCC(N)=O)NC1=O [Peptide P5] ({CH2CO}-A[dY][dI]QNCP[dL]G-NH2; thioether N-6)
0.0322

Now consider CC[C@@H](C)[C@@H](NC(=O)[C@@H](Cc1ccc(O)cc1)NC(=O)[C@H](C)N)C(=O)N[C@@H](CCC(N)=O)C(=O)N[C@@H](CC(N)=O)C(=O)N[C@@H](C)C(=O)N1CCC[C@H]1C(=O)N[C@H](CC(C)C)C(=O)NCC(N)=O [Peptide P11] (H-A[dY][dI]QNAP[dL]G-NH2) .
0.289
